target: C6orf58; assay: pooled miR-30 sensor sort-seq; sequence = guide strand; details: shRNA; also: reference of the scale not given here
Please provide measured sensor-assay potency score (higher = more potent) for the entries that follow.

Sample records with sensor-assay potency score (higher = more potent):
TATGATTTTATACATCCCCATT | -1.55
TTACTGATTGTCAAGTTCGAGT | -0.967
TTGGATCAGCTAATCTGCCTGT | 0.319
TTTCTGTACAAAGATAACCTAT | -0.334
TAATTCATTAATCATTTCCTGA | -0.771

Hi there! I need sensor-assay potency score (higher = more potent) for each item below, if you can.
1. TTTATCCACATTGTCAAGCATA
2. TAGAATAATAATCATATCTGTC

-1.01
-0.538

====

biological target: PDP1; assay: pooled miR-30 sensor sort-seq; sequence = guide strand; conditions: shRNA
Binary call on sensor-assay potency score (higher = more potent): class 1 from -0.8 upward, class 0 beneath that.

Example entries and their recorded answers appear below.
TTGTCATTCAACTGGTCTGGGC | class 0
TTTAAGGATGCTATTGACTTGT | class 1
TTTTGAAGGTCAATGCTCCATT | class 1
TGAAACTGTATTCATTAGCTTT | class 0
TGCATTTTCAATCTCTAGCAAA | class 0

Record TATTCATTGTCATTCAACTGGT ; criterion: sensor-assay potency score (higher = more potent) no lower than -0.8. Met?
class 1

Record ATGATTGTAATGTCATCTCTGT ; criterion: sensor-assay potency score (higher = more potent) no lower than -0.8. Met?
class 1

Record TATTATAGTAGTATCTTTTTAA ; criterion: sensor-assay potency score (higher = more potent) no lower than -0.8. Met?
class 0

====

target: CCDC72; assay: pooled miR-30 sensor sort-seq; sequence = guide strand; settings: shRNA
Binary call on sensor-assay potency score (higher = more potent): Y from -0.8 upward, N beneath that.

Example entries and their recorded answers appear below.
TTAAATGTACAACAGCTCCAAG | N
ATCTTCCTCGTCCATCTCCTTG | N
TTGTTTCTGCTTGAAAGCCTTA | Y

Record TTATCTTCCTCGTCCATCTCCT ; criterion: sensor-assay potency score (higher = more potent) no lower than -0.8. Met?
Y

Record TTCAGTGGCTTCTTCTTGCCAC ; criterion: sensor-assay potency score (higher = more potent) no lower than -0.8. Met?
Y

Record TTATTCTTAAATGTACAACAGC ; criterion: sensor-assay potency score (higher = more potent) no lower than -0.8. Met?
N

====

target: MBD3; assay: pooled miR-30 sensor sort-seq; sequence = guide strand; details: shRNA
Binary call on sensor-assay potency score (higher = more potent): TRUE from -0.7 upward, FALSE beneath that.

Example entries and their recorded answers appear below.
TTGCTCATCAGCATCTTGCCCG | TRUE
TCGCTCTTGACCTTGTTGCTGG | FALSE
TTGGTAATCTTGGTCACCGGCT | FALSE
ATCAGCATCTTGCCCGTGCGGA | FALSE
TCGTCGTCGTCCTCAGCGCAGG | FALSE
TTGCTGCGGAACTTCTTCCCGC | FALSE
TTGGGGAGGTCCATGGTCTTGA | FALSE

Attention now turns to another entry.
Record TTGAAGATGGACGCCGTCTGGC ; criterion: sensor-assay potency score (higher = more potent) no lower than -0.7. Met?
TRUE
